Hey, just so you know, these numbers are from ChEMBL document CHEMBL1201862.

- System: SW-620
- EXPERIMENTAL_PROTOCOL: NCI tumour cell line growth inhibition, 48 h
Activity calls are given as the source filed them. Rule as the data show it: active = GI50 up to about 1.1 µM and inactive = higher.
Classes to choose from: active, inactive

Examples from the recorded data:
1. O=C(O)c1cc(O)c2c(c1)Cc1cccc(O)c1C2=O = inactive
2. COc1ccc(C(C)NNC(=O)c2ccncc2)c(OC)c1 (configuration not stated) = inactive
3. COC1C2C[C@@H](O)CCC2C(C(=O)OCCl)C[C@H]1O (some centres not stated) = inactive
4. COC(=O)c1cc(C)c(C)c2c1NC(=O)CNC2=O = inactive
5. O=CCCn1[nH]c(=O)ccc1=O = inactive
6. O=c1oc2ccc3ccccc3c2cc1-c1nc2ccccc2o1 = inactive
7. OC[C@H]1N[C@H](CO)[C@@H](O)[C@H]1O = inactive
8. CCOC(=O)NC(=O)c1cn(CCN2CCN(C(=O)CCCCCCCCCCNc3ncnc4c3ncn4C3OC(CO)C(O)C3O)CC2)c(=O)[nH]c1=O (configuration not stated) = inactive
9. CN1C/C(=C\c2ccccc2[N+](=O)[O-])C(=O)/C(=C/c2ccccc2[N+](=O)[O-])C1 = active
10. CC(C)(C)OC(=O)NC(CCC(=O)OCc1ccccc1)C(=O)NCCCO (configuration not stated) = inactive

In: Per the records of this test, what outcome belongs to O=[N+]([O-])c1cccc2nc3ccccc3c(NCCCN3CCOCC3)c12 ?
Out: active

In: Lookup O=C1C[C@@H]2CCCC[C@@H]2C12SCCS2
Out: inactive

In: Lookup N#Cc1ccccc1NC(=O)/C(=N\NC(=O)c1ccncc1)C(c1cnc2ccc([N+](=O)[O-])cc2n1)[N+](=O)[O-] (configuration not stated)
Out: inactive

* * *

Let's look at some compounds and their measured GI50.
- Tested on: OVCAR-3
- EXPERIMENTAL_PROTOCOL: NCI tumour cell line growth inhibition, 48 h
Active and inactive are the calls of the source. Cut-off read from the data, not from the text of the source: active = GI50 up to about 1.1 µM and inactive = higher.

In: Quick check: GI50 of N#Cc1cccc(N2C(=O)c3c(c(-c4ccccc4)c(-c4ccc(Sc5ccc(-c6c(-c7ccccc7)c7c(c(-c8ccccc8)c6-c6ccccc6)C(=O)N(c6cccc(C#N)c6)C7=O)cc5)cc4)c(-c4ccccc4)c3-c3ccccc3)C2=O)c1 ?
Out: > 100 µM (inactive)

* * *

- Test system: OVCAR-5
- EXPERIMENTAL_PROTOCOL: NCI tumour cell line growth inhibition, 48 h
Activity calls are given as the source filed them. No stated cut-off is given here; in the data, active = GI50 up to about 1.1 µM and inactive = higher.
Classes to choose from: active, inactive

In: Per the records of this test, what outcome belongs to Cc1c(Cl)ccc2c1NC(=O)C2(O)C1Cc2ccccc2C1=O (centres undefined) ?
Out: inactive

In: Lookup CC1(C)[C@@H]2C[C@H]1C(Cc1ccccc1C[C@H]1c3cc(-c4ccccn4)ncc3[C@H]3C[C@@H]1C3(C)C)c1cc(-c3ccccn3)ncc12 (some centres undefined)
Out: active

In: Lookup Cc1nc(Nc2ccc([N+](=O)[O-])cc2)sc1C(=O)/C=C/c1ccc(N(C)C)cc1
Out: inactive

In: Lookup O=c1[nH]c(-c2ccccc2)nc2cc([N+](=O)[O-])c(/C(Cl)=C/c3ccccc3)cc12
Out: inactive

In: Lookup O=C(/C=C1\Nc2ccc([N+](=O)[O-])cc2N\C1=C/C(=O)c1ccc(F)cc1)c1ccc(F)cc1
Out: inactive

* * *

- Tested on: DMS-114
- EXPERIMENTAL_PROTOCOL: NCI tumour cell line growth inhibition, 48 h
The source made the active and inactive calls. Cut-off read from the data, not from the text of the source: active = GI50 up to about 1.1 µM and inactive = higher.
Let's look at some compounds and their measured GI50.

Solved cases below.
1. CN(C)CCCNC(=O)N/N=C/c1cccc([N+](=O)[O-])c1 = > 100 µM (inactive)
2. CC(=O)NNc1nc(C)c(C(/C=C/c2ccc(Cl)cc2)=N/NC(=S)NN)s1 = > 100 µM (inactive)
3. N#Cc1cccc(N2C(=O)c3c(c(-c4ccccc4)c(-c4ccc(Sc5ccc(-c6c(-c7ccccc7)c7c(c(-c8ccccc8)c6-c6ccccc6)C(=O)N(c6cccc(C#N)c6)C7=O)cc5)cc4)c(-c4ccccc4)c3-c3ccccc3)C2=O)c1 = 89.5 µM (inactive)

In: # returns recorded GI50 (system: DMS-114) for CN(C)CC1CCC(CN(C)C)C(=O)C1=O (stereo unspecified)
Out: 6.62 µM (inactive)

In: Lookup Nc1ccc2c(c1)Oc1c(F)c(F)cc3c(=O)c(C(=O)O)cn-2c13
Out: > 100 µM (inactive)

In: Lookup CN(C)/N=N/c1ccc(C(N)=O)cc1
Out: > 100 µM (inactive)

* * *

- Test system: SW-620
- EXPERIMENTAL_PROTOCOL: NCI tumour cell line growth inhibition, 48 h
The source made the active and inactive calls. Cut-off read from the data, not from the text of the source: active = GI50 up to about 1.1 µM and inactive = higher.
METRIC_NAME: GI50

In: Quick check: GI50 of O=c1c2ccccc2n2c(S)nnc2n1-c1ccccc1 ?
Out: > 100 µM (inactive)

In: Lookup COC(=O)/C(=N\NC(N)=S)C(C(=O)OC)C(=O)C(=O)Nc1ccc(C)cc1 (centres undefined)
Out: > 100 µM (inactive)

In: Lookup Cc1c(Cl)ccc2c1NC(=O)C2(O)C1Cc2ccccc2C1=O (centres undefined)
Out: > 100 µM (inactive)

In: Lookup COCC([C@@H](O)C(O)C(=O)NCC[C@@H](C)c1nc(/C=C/CC2OC3(C[C@H](O)C2C)OC(C(C[C@H](O)C(C)[C@H](O)C(C)/C=C(C)/C(C)=C/C=C/C(C)=C/C#N)OC)[C@@H](OP(=O)(O)O)C3(C)C)co1)N(C)C (some centres undefined)
Out: 0.000182 µM (active)

In: Lookup N[C@@H](CSCSC[C@H](N)C(=O)O)C(=O)O
Out: > 225 µM (inactive)

In: Lookup COC(=O)C12C3C4C1C1C2C3C41C(=O)NC(C)(C)CC(=O)O (centres undefined)
Out: > 100 µM (inactive)

* * *

Let's look at some molecules and their measured GI50.
- Test system: OVCAR-4
- EXPERIMENTAL_PROTOCOL: NCI tumour cell line growth inhibition, 48 h
Active and inactive are the calls of the source. Cut-off read from the data, not from the text of the source: active = GI50 up to about 1.1 µM and inactive = higher.

1. Clc1ccc(C2=NOC3C4CCC(C4)C23)cc1 (stereo not given) = > 100 µM (inactive)
2. Clc1nc(Cl)c(Cl)c(-c2ccccc2)n1 = 4.85 µM (inactive)
3. CCOC(=O)/C=C1/Oc2ccccc2C1(C)O (stereo not given) = > 100 µM (inactive)
4. CC1OC(O)CC(OC(=O)c2ccccc2)C1OC(=O)c1ccccc1 (stereo not given) = 15.1 µM (inactive)
5. C=C1c2nc3ccccc3n2C=C(c2ccccc2)N1c1ccc(Cl)cc1 = 5.74 µM (inactive)

In: Quick check: GI50 of CC1(C)CC[C@]2(C)CC[C@]3(C)C(=CC[C@@H]4[C@@]5(C)CCC(=O)C(C)(C)[C@@H]5[C@H](O)C[C@]43C)[C@@H]2C1 ?
Out: 18.1 µM (inactive)

In: Lookup O=C(/C=C1\Nc2ccc([N+](=O)[O-])cc2N\C1=C/C(=O)c1ccc(F)cc1)c1ccc(F)cc1
Out: > 100 µM (inactive)

In: Lookup O=S(=O)(O)CCCC1S(=O)(=O)OCCOS1(=O)=O
Out: > 100 µM (inactive)

In: Lookup CC(=O)/N=C1/N(/C=C2\C(=O)Oc3ccccc3C2=O)C(=O)/C(=C/c2ccc(OC(C)=O)cc2)N1C
Out: > 100 µM (inactive)

In: Lookup CCOC(=O)/C(C(=O)Nc1cccc(C(F)(F)F)c1)=C(/N)N1CCCC1
Out: > 100 µM (inactive)

* * *

- Test system: SK-MEL-2
- EXPERIMENTAL_PROTOCOL: NCI tumour cell line growth inhibition, 48 h
Calls of active or inactive are those of the source. No stated cut-off is given here; in the data, active = GI50 up to about 1.1 µM and inactive = higher.
Let's look at some compounds and their measured GI50.

Solved cases below.
1) [O-][n+]1cc(SCc2ccccc2)ncc1SCc1ccccc1 = > 10 µM (inactive)
2) O=C(c1ccccc1)c1ccc2[nH]c(-c3c(Cl)c(Cl)c(Cl)c(Cl)c3C(=O)N/N=C/c3cccc(Oc4ccccc4)c3)nc2c1 = 46.2 µM (inactive)
3) CCOC(=O)NC(=O)c1cn(CC(=O)NCC(=O)NCC(=O)N2CCN(CCn3c(C)nc(C(N)=O)c3N)CC2)c(=O)[nH]c1=O = > 100 µM (inactive)
4) Cc1ccc2c(c1)C(=C(C#N)C#N)CCCS2(=O)=O = > 100 µM (inactive)
5) Cc1nc(Nc2ccccc2Cl)sc1C(=O)CC(=O)C(=O)Nc1c(Cl)cccc1Cl = 16.1 µM (inactive)
6) Clc1ccc(C(Cc2cccc(Cl)c2)c2c(Cl)nc(N3CCNCC3)nc2Cl)cc1 (stereo unspecified) = 21.6 µM (inactive)

In: Quick check: GI50 of Cc1cc(Nc2ccc(S(=O)(=O)O)cc2)c2ccccc2n1 ?
Out: > 100 µM (inactive)

In: Lookup O=C1C=CC(=NNc2ccccc2)C=CC1=O
Out: 15.1 µM (inactive)

In: Lookup c1ccc2cc3c(NC4=NCCO4)cccc3cc2c1
Out: 46.1 µM (inactive)

In: Lookup C=C1CC/C=C(/C(=O)O)CC[C@H]2[C@@H]1CC2(C)C
Out: > 100 µM (inactive)

In: Lookup COc1cccc2c1C(=O)C1(O)CCCCC21 (stereo unspecified)
Out: > 100 µM (inactive)

In: Lookup O=[N+]([O-])c1cc(-[n+]2cc([O-])on2)ccc1F
Out: 15.6 µM (inactive)
